molecular target: eNOS promoter; assay: Activation of eNOS transcription (eNOS promoter firefly luciferase reporter); settings: EC50 of transcription induction ratio (TIR) vs compound concentration, determined graphically; stably transfected human endothelial cell line, 18 h incubation
pEC50: −log10 of the molar value.
reported.metric: pEC50

O=C(N[C@H]1CCc2ccccc2C1)c1ccc2[nH]nnc2c1 [Compound 26]: 4.82
N#Cc1ccc(C(=O)N[C@H]2CCc3ccccc3C2)cn1 [Compound 57]: 6.30
COc1cccc2c1CC[C@H](NC(=O)c1ccc(F)cc1)C2 [Compound 7]: 5.22
CN(C)c1cccc(C(=O)N[C@@H]2CCc3ccccc3C2)c1 [Compound 10]: 5.02
Cc1c(C(=O)N[C@@H]2CCc3ccccc3C2)cnn1-c1ccccc1 [Compound 31]: 4.96

a = CN(C)c1cccc(C(=O)N[C@H]2CCc3ccccc3C2)c1 [Compound 11]
b = O=C(N[C@@H]1CCc2ccccc2C1)c1ccc2[nH]nnc2c1 [Compound 25]
Response body: label of entry with the larger pEC50; valid values a , b . Write down the label attached to your selection.
b
(b: 5.34, a: 4.89)

a = O=C(N[C@@H]1CCc2ccccc2C1)c1ccc2cc[nH]c2c1 [Compound 48]
b = Nc1ncccc1C(=O)N[C@@H]1CCc2ccccc2C1 [Compound 17]
Hi! Which is lower in terms of pEC50, the first one a or the second one b ? Write down the label attached to your selection.
a
